Recorded γ2/γ1 Selectivity Ratio, one value per entry.
Tested Target: h-GABAA α1β3γ2 (Homo sapiens, UniProt P14867+P18507)
Construct: expressed in transfected cells; host or cells: HEK293F cells, membranes
Measurement Protocol: Radioligand binding assay, [3H]Flumazenil competition, HEK293F membranes
Condition Set: Table 3; Ki α1β3γ2 (nM)/Ki α2β2γ1 (nM)

Compound | Tested Target | γ2/γ1 Selectivity Ratio
Cc1nnc2n1-c1ccc(C(F)(F)F)c(Cl)c1C(c1c(F)cccc1F)=NC2 [Example 40] | h-GABAA α1β3γ2 (Homo sapiens, UniProt P14867+P18507) | 37.5
Cc1nnc2n1-c1ccc(C(F)(F)F)cc1C(c1c(F)cccc1F)=NC2 [RE-B, reference compound] | h-GABAA α1β3γ2 (Homo sapiens, UniProt P14867+P18507) | 0.23
Cc1nnc2n1-c1ccccc1C(c1c(F)cccc1F)=NC2 [RE-C, reference compound] | h-GABAA α1β3γ2 (Homo sapiens, UniProt P14867+P18507) | 0.0092
Fc1cccc(F)c1C1=NCc2nnc(-c3cccnn3)n2-c2ccc(Cl)c(Cl)c21 [Example 14] | h-GABAA α1β3γ2 (Homo sapiens, UniProt P14867+P18507) | 86.6
Cc1nnc2n1-c1cccc(Cl)c1C(c1c(F)cccc1F)=NC2 [RE-G, reference compound] | h-GABAA α1β3γ2 (Homo sapiens, UniProt P14867+P18507) | 9.8
Cc1nnc2n1-c1ccc(Br)cc1C(c1c(F)cccc1F)=NC2 [RE-A, reference compound] | h-GABAA α1β3γ2 (Homo sapiens, UniProt P14867+P18507) | 0.18
Cc1nnc2n1-c1ccc(Br)c(Cl)c1C(c1c(F)cccc1F)=NC2 [Example 1] | h-GABAA α1β3γ2 (Homo sapiens, UniProt P14867+P18507) | 18.3
